- Tested on: drug-resistant HIV-1 strains
- assay-method-text: Antiviral activity against drug-resistant HIV-1 strains in MT-4
- Type: cell-based
- test-settings: Human immunodeficiency virus 1, read-out: Mean EC50 ± SD, NNRTI-resistant, RT K103N; MT-4
# pEC50 listing for each entry below
Just the number, please; pEC50 means minus log10 of the concentration in mol/L.

CCCC(=O)OCSc1ccccc1C(=O)NCCC(N)=O [NS1040]
5.30

Here's the next entry for you.
Recorded result, NC(=O)CCNC(=O)c1ccccc1S [MDH-1-38] , pEC50: 5.40
